# System: HIV-1 integrase (with human LEDGF/p75)
# PROCEDURE SUMMARY: blockers of LEDGF/p75-dependent integrase strand transfer – biochemical, TR-FRET, high throughput, primary screen (AID 743269);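 note: signal is the Cy5 over europium emission ratio at 671 and 618 nm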
# CONDITION DETAILS: TR-FRET IN-LEDGF/p75 DNA integration, Eu/Cy5; at 3.7 µM
Among all 370,000 compounds or so, about 2,400 (0.65%) were called active.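 Rule for the calls: active = inhibition above the screen-wide mean plus 3 SD (cut at about 13% in these data); inactive = the rest.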 For the sample, actives were picked, then their nearest neighbours and some compounds at random.
Thanks in advance; please answer with one of these: Yes = active, No = inactive

Answered cases to consult:
O=S1(=O)c2c(cccc2N2CCSCC2)Oc2ccccc2CN1Cc1cn(Cc2ccc(F)cc2)nn1 ... No
COc1cc(NC(=O)COC(=O)c2ccc([N+](=O)[O-])s2)cc(OC)c1OC ... Yes
COC(=O)c1cc(S(=O)(=O)N2CCN(c3ccccc3C)CC2)cn1C ... No
CCN(CC)C(=O)CC[C@H]1CC[C@]2(CCCN(Cc3ccc(Cl)cc3)C2)O1 ... No
O=C(O)CCC(=O)Nc1ccc(N2CCOCC2)cc1 ... Yes

// next entry
Ask | Each molecule tested received a call. Report the one for Cc1sc2nc(SCC(N)=O)n(C)c(=O)c2c1C .
Reply | No
